# microsomal CLint at 1 μM annotations
Test: in vitro
Conditions: both, human, s9, CLint
assay readout: microsomal CLint at 1 μM

[[record]]
compound = "CCCCC/C=C\\C/C=C\\CCCCCCCC(=O)OCC(COC(=O)CCC(=O)OCCNC(=O)CCCCCCCCCCCCCCC)OC(=O)CCCCCCC/C=C\\C/C=C\\CCCCC (stereo not shown) [Compound I-13]"
result = "< 11.6 µL/min/mg"

[[record]]
compound = "CCCCCCCCCCCCCCCC(=O)NCCOC(=O)CCC(=O)OC(CO)CO [Compound I-8]"
result = "> 69.3 µL/min/mg"

[[record]]
compound = "CCCCCCCCCCCCCCCC(=O)NCCOC(=O)CCC(=O)OC(COC(=O)CCC)COC(=O)CCC [Compound I-16]"
result = "> 69.3 µL/min/mg"

[[record]]
compound = "CCCCCCCCCCCCCCCC(=O)NCCOC(=O)CCC(=O)OCC(O)CO (stereo not shown) [Compound I-9]"
result = "> 69.3 µL/min/mg"


* * *

Experiment: Simulated intestinal fluid (SIF) stability in the presence of various enzymes
Format: in vitro ADME
Conditions: SIF + Trypsin, 15 min, 1 μM
assay readout: % Remaining of Initial (n = 1)

[[record]]
compound = "CCCCCCCCCCCCCCCC(=O)NCCOC(=O)CCC(=O)OCC(O)CO (centres unmarked)"
assay_readout = "% Remaining of Initial (n = 1)"
result = "67%"

[[record]]
compound = "CCCCCCCCCCCCCCCC(=O)NCCOC(=O)CCC"
assay_readout = "% Remaining of Initial (n = 1)"
result = "82%"

[[record]]
compound = "CCCCC/C=C\\C/C=C\\CCCCCCCC(=O)OCC(COC(=O)CCC(=O)OCCNC(=O)CCCCCCCCCCCCCCC)OC(=O)CCCCCCC/C=C\\C/C=C\\CCCCC (centres unmarked)"
assay_readout = "% Remaining of Initial (n = 1)"
result = "78%"

[[record]]
compound = "CCCCC/C=C\\C/C=C\\CCCCCCCC(=O)OCCNC(=O)CCCCCCCCCCCCCCC"
assay_readout = "% Remaining of Initial (n = 1)"
result = "116%"

[[record]]
compound = "CCCCCCCCCCCCCCCC(=O)NCCOC(=O)CCC(=O)OCC(COC(=O)CCCCCCC)OC(=O)CCCCCCC (centres unmarked) [Compound I-3, PEA-Succinate-Glycerol-Di-Caprylic]"
assay_readout = "% Remaining of Initial (n = 1)"
result = "67%"

[[record]]
compound = "CCCCCCCCCCCCCCCC(=O)NCCOC(=O)CCC(=O)OC[C@H]1O[C@@](CO)(O[C@H]2O[C@H](CO)[C@@H](O)[C@H](O)[C@H]2O)[C@@H](O)[C@@H]1O"
assay_readout = "% Remaining of Initial (n = 1)"
result = "66%"

[[record]]
compound = "CCCCCCCCCCCCCCCC(=O)NCCOC(=O)CCC(=O)OCC(COC(=O)CCC)OC(=O)CCC (centres unmarked)"
assay_readout = "% Remaining of Initial (n = 1)"
result = "77%"

[[record]]
compound = "CC/C=C\\C/C=C\\C/C=C\\C/C=C\\C/C=C\\CCCC(=O)OCCNC(=O)CCCCCCCCCCCCCCC"
assay_readout = "% Remaining of Initial (n = 1)"
result = "81%"


* * *

Assay: in vitro
Conditions: male, CD-1, mouse, s9, 1 h, 1 μM
assay readout: % Remaining of Initial (n = 1), 60 min

[[record]]
molecule = "CCCCCCCCCCCCCCCC(=O)NCCOC(=O)CCC(=O)OCC(COC(=O)CCCCCCC)OC(=O)CCCCCCC (stereo not shown) [Compound I-3, PEA-Succinate-Glycerol-Di-Caprylic]"
result = "33%"

[[record]]
molecule = "CCCCC/C=C\\C/C=C\\CCCCCCCC(=O)OCCNC(=O)CCCCCCCCCCCCCCC"
result = "53%"

[[record]]
molecule = "CCCCCCCCCCCCCCCC(=O)NCCOC(=O)CCC(=O)OC[C@H]1O[C@@](CO)(O[C@H]2O[C@H](CO)[C@@H](O)[C@H](O)[C@H]2O)[C@@H](O)[C@@H]1O"
result = "5.7%"

[[record]]
molecule = "CCCCCCCCCCCCCCCC(=O)NCCOC(=O)CCC"
result = "<1.0%"

[[record]]
molecule = "CCCCCCCCCCCCCCCC(=O)NCCOC(=O)CCC(=O)OCC(O)CO (stereo not shown)"
result = "6.5%"

[[record]]
molecule = "CCCCCCCCCCCCCCCC(=O)NCCOC(=O)CCC(=O)OCC(COC(=O)CCC)OC(=O)CCC (stereo not shown)"
result = "<1.0%"

[[record]]
molecule = "CC/C=C\\C/C=C\\C/C=C\\C/C=C\\C/C=C\\CCCC(=O)OCCNC(=O)CCCCCCCCCCCCCCC"
result = "49%"


* * *

Experiment: Summary of half life data (Table A), matrix not stated
Type: in vitro ADME
assay readout: half-life (min)

[[record]]
compound = "CCCCCCCCCCCCCCCC(=O)NCCOC(=O)CCC(=O)OCC(COC(=O)CCC)OC(=O)CCC (centres unmarked)"
relational_operator = "<"
numeric_readout = 1

[[record]]
compound = "CCCCCCCCCCCCCCCC(=O)NCCOC(=O)CCC(=O)OC(CO)CO"
relational_operator = "="
numeric_readout = 6.2

[[record]]
compound = "CCCCCCCCCCCCCCCC(=O)NCCOC(=O)CCC(=O)OC(COC(=O)CCC)COC(=O)CCC"
relational_operator = "<"
numeric_readout = 1

[[record]]
compound = "CCCCCCCCCCCCCCCC(=O)NCCOC(=O)CCC(=O)OC[C@@H](COC(=O)CCC)OC(=O)CCC"
relational_operator = "<"
numeric_readout = 1

[[record]]
compound = "CCCCCCCCCCCCCCCC(=O)NCCOC(=O)CCC(=O)OC[C@H](COC(=O)CCC)OC(=O)CCC"
relational_operator = "="
numeric_readout = 7.5


* * *

Assay: Intestinal S9 fraction stability, rat
Details: male, Sprague-Dawley, rat, s9, Half-life, Rat intestinal S9 fraction
assay readout: half-life at 1 μM

[[record]]
compound = "C[C@]12CC[C@H]3[C@@H](CCC4=CC(=O)CC[C@@]43C)[C@@H]1CC[C@@H]2O [Testosterone, testosterone, reference compound]"
assay_readout = "half-life at 1 μM"
result = "> 1 h"


* * *

# Measured concentration of analyte PEA, 60 min annotations
Experiment: in vitro
Conditions: both, human, 60 min, 1 μM
assay readout: Measured concentration of analyte PEA, 60 min (µM)

[[record]]
compound = "CCCCCCCCCCCCCCCC(=O)NCCOC(=O)CCC(=O)OCC(O)CO (stereo not shown)"
numeric_readout = 0.058

[[record]]
compound = "CCCCCCCCCCCCCCCC(=O)NCCOC(=O)CCC(=O)OCC(COC(=O)CCC)OC(=O)CCC (stereo not shown)"
numeric_readout = 0.057

[[record]]
compound = "CCCCCCCCCCCCCCCC(=O)NCCOC(=O)CCC(=O)OC[C@H]1O[C@@](CO)(O[C@H]2O[C@H](CO)[C@@H](O)[C@H](O)[C@H]2O)[C@@H](O)[C@@H]1O"
numeric_readout = 0.080

[[record]]
compound = "CCCCCCCCCCCCCCCC(=O)NCCOC(=O)CCC(=O)OCC(COC(=O)CCCCCCC)OC(=O)CCCCCCC (stereo not shown) [Compound I-3, PEA-Succinate-Glycerol-Di-Caprylic]"
numeric_readout = 0.027

[[record]]
compound = "CCCCCCCCCCCCCCCC(=O)NCCOC(=O)CCC"
numeric_readout = 0.071

[[record]]
compound = "CCCCC/C=C\\C/C=C\\CCCCCCCC(=O)OCCNC(=O)CCCCCCCCCCCCCCC"
numeric_readout = 0

[[record]]
compound = "CC/C=C\\C/C=C\\C/C=C\\C/C=C\\C/C=C\\CCCC(=O)OCCNC(=O)CCCCCCCCCCCCCCC"
numeric_readout = 0.016


* * *

Experiment: in vitro
Conditions: both, human, s9, CLint, calculated value in parentheses
Procedure: The reaction mixture, minus cofactors, was prepared as described below. The test article was added into the reaction mixture at a final concentration of 1 μM. […] Half-lives were calculated using GraphPad software, fitting to single-phase exponential decay equation. Reaction mixture, minus cofactors, was prepared as described below. […] Halflives were calculated using GraphPad software, fitting to a single-phase exponential decay equation. […]
assay readout: microsomal CLint at 1 μM (µL/min/mg)

[[record]]
compound = "CCCCCCCCCCCCCCCC(=O)NCCOC(=O)CCC(=O)OCC(O)CO (stereo not shown)"
numeric_readout = 75.3


* * *

# half-life at 1 μM annotations
Experiment: Plasma stability (37° C., pH 7.4), dog
Type: in vitro ADME, Beagle dog
Settings: male, Beagle, dog, plasma, pH 7.4, dog plasma, test article 1 μM, 37° C., pH 7.4
assay readout: half-life at 1 μM (min)

[[record]]
compound = "CCCCCCCCCCCCCCCC(=O)NCCOC(=O)CCC(=O)OCC(COC(=O)CCC)OC(=O)CCC (stereo not shown)"
relational_operator = "="
numeric_readout = 23

[[record]]
compound = "CCCCCCCCCCCCCCCC(=O)NCCOC(=O)CCC(=O)OCC(O)CO (stereo not shown)"
relational_operator = "="
numeric_readout = 4.7

[[record]]
compound = "CCCCC/C=C\\C/C=C\\CCCCCCCC(=O)OCCNC(=O)CCCCCCCCCCCCCCC"
relational_operator = "="
numeric_readout = 36

[[record]]
compound = "CC/C=C\\C/C=C\\C/C=C\\C/C=C\\C/C=C\\CCCC(=O)OCCNC(=O)CCCCCCCCCCCCCCC"
relational_operator = ">"
numeric_readout = 120

[[record]]
compound = "CCCCCCCCCCCCCCCC(=O)NCCOC(=O)CCC(=O)OCC(COC(=O)CCCCCCC)OC(=O)CCCCCCC (stereo not shown) [Compound I-3, PEA-Succinate-Glycerol-Di-Caprylic]"
relational_operator = ">"
numeric_readout = 120

[[record]]
compound = "CCCCCCCCCCCCCCCC(=O)NCCOC(=O)CCC(=O)OC[C@H]1O[C@@](CO)(O[C@H]2O[C@H](CO)[C@@H](O)[C@H](O)[C@H]2O)[C@@H](O)[C@@H]1O"
relational_operator = "<"
numeric_readout = 1

[[record]]
compound = "CCCCCCCCCCCCCCCC(=O)NCCOC(=O)CCC"
relational_operator = "="
numeric_readout = 61


Where these numbers come from: patent US11547681B2
